For each record, write down the corresponding IC50.
- Target Or Test System: PI3Kγ (purified recombinant p101/p110γ protein) (Homo sapiens)
- Construct: HA; made in house; host or cells: Spodoptera frugiperda Sf9 cells (baculovirus coinfection)
- Procedure Text: PI3Kγ in vitro kinase assay
- Type: biochemical
- Run Parameters: 20 μM ATP, 25 μM PIP2, G protein β1/γ2 subunits
I only need the number, in nM, no unit after it.

Query: Form entry - test system: PI3Kγ (purified recombinant p101/p110γ protein) (Homo sapiens); read-out: IC50; molecule: COc1cc2c(OC3CC(C)CC(C)(C)C3)c(C(=O)Nc3nn[nH]n3)sc2cc1F (stereo not drawn)
Result: 5.3

Query: Do the same for COc1cc2c(OC3CCCCC3)c(C(=O)Nc3nn[nH]n3)sc2cc1F please
Result: 10.5

Query: Do the same for COc1ccc2sc(C(=O)Nc3nnn[nH]3)c(Sc3cccc(O)c3)c2c1F please
Result: 3640

Query: Do the same for COc1cc2c(OC3CC(C)CC(C)C3)c(C(=O)Nc3nn[nH]n3)sc2cc1F (stereo not drawn) please
Result: 2.2

Query: Do the same for COc1cc2c(OC3CCCC(C)(C)C3)c(C(=O)Nc3nn[nH]n3)sc2cc1F (stereo not drawn) please
Result: 6.5

Query: Do the same for COc1ccc2sc(C(=O)Nc3nnn[nH]3)c(Sc3ccc(C(=O)O)cc3)c2c1F please
Result: 5950

Query: Do the same for COc1ccc2sc(C(=O)Nc3nnn[nH]3)c(SC3CCCCC3)c2c1F please
Result: 580

Query: Do the same for CCc1cccc(Oc2c(C(=O)Nc3nn[nH]n3)sc3cc(F)c(OC)cc23)c1 please
Result: 62.5

Query: Do the same for COc1cc2c(Sc3ccccc3)c(C(=O)Nc3nnn[nH]3)sc2cc1F please
Result: 32.5

Query: Do the same for COc1cc2c(Oc3ccc(C(C)C)cc3)c(C(=O)Nc3nn[nH]n3)sc2cc1F please
Result: 13.5

Query: Do the same for COc1cc2c(O[C@H]3CCC[C@@H](C)C3)c(C(=O)Nc3nn[nH]n3)sc2cc1F (racemic) please
Result: 3.8

Query: Do the same for COc1cccc(Sc2c(C(=O)Nc3nnn[nH]3)sc3cc(F)c(OC)cc23)c1 please
Result: 470

* * *

- Target Or Test System: PI3Kγ (purified recombinant p101/p110γ protein) (Homo sapiens, UniProt P48736)
- Construct: HA; made in house; host or cells: Spodoptera frugiperda Sf9 cells (baculovirus coinfection)
- Sequence (P48736 whole entry, species assumed): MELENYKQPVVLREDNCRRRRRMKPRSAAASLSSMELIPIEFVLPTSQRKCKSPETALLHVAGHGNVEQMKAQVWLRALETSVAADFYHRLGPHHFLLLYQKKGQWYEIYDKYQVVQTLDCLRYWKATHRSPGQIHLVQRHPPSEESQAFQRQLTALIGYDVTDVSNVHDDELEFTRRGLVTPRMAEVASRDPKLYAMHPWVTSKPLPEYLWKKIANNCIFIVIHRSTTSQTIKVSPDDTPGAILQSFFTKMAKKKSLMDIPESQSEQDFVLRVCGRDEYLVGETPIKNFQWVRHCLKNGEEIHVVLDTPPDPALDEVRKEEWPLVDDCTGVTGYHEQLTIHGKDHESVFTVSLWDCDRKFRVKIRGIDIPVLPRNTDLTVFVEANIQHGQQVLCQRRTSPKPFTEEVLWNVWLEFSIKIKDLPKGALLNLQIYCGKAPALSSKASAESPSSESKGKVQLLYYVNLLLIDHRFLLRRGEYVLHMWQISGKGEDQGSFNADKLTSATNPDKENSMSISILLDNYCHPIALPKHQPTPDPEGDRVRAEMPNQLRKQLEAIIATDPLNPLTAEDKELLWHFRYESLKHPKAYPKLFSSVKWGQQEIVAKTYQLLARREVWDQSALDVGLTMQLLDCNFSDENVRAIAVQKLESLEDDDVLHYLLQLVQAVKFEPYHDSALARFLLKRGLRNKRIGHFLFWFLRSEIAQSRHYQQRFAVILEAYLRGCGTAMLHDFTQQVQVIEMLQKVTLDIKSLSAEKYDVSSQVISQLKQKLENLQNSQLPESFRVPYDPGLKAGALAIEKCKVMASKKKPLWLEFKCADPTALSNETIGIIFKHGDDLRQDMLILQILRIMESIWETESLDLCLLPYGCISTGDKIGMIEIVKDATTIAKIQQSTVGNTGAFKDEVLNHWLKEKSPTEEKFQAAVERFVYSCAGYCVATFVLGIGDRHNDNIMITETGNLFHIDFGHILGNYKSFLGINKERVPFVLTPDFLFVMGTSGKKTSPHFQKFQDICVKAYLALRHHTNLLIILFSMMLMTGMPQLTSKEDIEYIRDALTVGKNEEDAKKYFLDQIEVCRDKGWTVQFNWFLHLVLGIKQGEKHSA
- Sequence (Q8WYR1 whole entry partner, species assumed): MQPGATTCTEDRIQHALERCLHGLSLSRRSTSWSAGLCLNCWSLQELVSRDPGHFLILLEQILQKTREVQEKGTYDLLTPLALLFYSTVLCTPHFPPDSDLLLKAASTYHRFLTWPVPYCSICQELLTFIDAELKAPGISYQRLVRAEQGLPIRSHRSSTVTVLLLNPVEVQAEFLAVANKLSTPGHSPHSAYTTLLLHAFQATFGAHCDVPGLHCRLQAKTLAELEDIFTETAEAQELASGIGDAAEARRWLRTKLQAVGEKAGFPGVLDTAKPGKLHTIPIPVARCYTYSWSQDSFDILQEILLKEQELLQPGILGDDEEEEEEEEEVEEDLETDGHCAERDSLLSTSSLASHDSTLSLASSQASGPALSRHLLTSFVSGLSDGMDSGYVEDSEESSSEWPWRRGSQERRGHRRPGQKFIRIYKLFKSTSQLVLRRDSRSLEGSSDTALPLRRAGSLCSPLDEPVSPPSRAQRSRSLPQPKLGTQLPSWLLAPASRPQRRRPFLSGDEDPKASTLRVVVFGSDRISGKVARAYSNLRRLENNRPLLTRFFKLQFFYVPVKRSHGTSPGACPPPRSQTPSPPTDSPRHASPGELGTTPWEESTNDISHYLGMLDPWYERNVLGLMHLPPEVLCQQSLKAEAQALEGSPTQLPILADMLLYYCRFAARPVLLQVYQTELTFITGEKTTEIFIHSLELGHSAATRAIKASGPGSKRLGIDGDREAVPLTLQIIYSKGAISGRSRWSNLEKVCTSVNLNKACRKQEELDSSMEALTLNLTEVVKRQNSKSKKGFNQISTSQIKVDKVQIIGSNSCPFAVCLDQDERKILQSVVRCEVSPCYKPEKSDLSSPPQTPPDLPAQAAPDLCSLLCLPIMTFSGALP
- Procedure Text: PI3Kγ in vitro kinase assay
- Type: biochemical
- Run Parameters: 20 μM ATP, 25 μM PIP2, G protein β1/γ2 subunits, table b291
Measured Property: pIC50
pIC50 field: float, defined as -log10 of concentration (mol/L).

Query: Which pIC50 value is on record for COc1cc2c(SC3CCCC3)c(C(=O)Nc3nnn[nH]3)sc2cc1F ?
Result: 7.96

* * *

- Target Or Test System: PI3Kγ (purified recombinant p101/p110γ protein) (Homo sapiens, UniProt P48736)
- Construct: HA; made in house; host or cells: Spodoptera frugiperda Sf9 cells (baculovirus coinfection)
- Procedure Text: PI3Kγ in vitro kinase assay
- Assay type: biochemical
- Run Parameters: 20 μM ATP, 25 μM PIP2, G protein β1/γ2 subunits
Measured Property: pIC50
pIC50 field: float, defined as -log10 of concentration (mol/L).

Query: Which pIC50 value is on record for COc1ccc2sc(C(=O)Nc3nnn[nH]3)c(Sc3ccc(CCC(=O)O)cc3)c2c1F [Example 36] ?
Result: 5.14

Query: Do the same for COc1ccc2sc(C(=O)Nc3nnn[nH]3)c(Sc3ccc(O)cc3)c2c1F [Example 22] please
Result: 5.56

Query: Do the same for COc1ccc2sc(C(=O)Nc3nnn[nH]3)c(Sc3cccc(C(=O)O)c3)c2c1F [Example 25] please
Result: 5.62

Query: Do the same for COC(=O)c1ccc(Sc2c(C(=O)Nc3nnn[nH]3)sc3ccc(OC)c(F)c23)cc1 [Example 26] please
Result: 4.70

Query: Do the same for COc1ccc2sc(C(=O)Nc3nnn[nH]3)c(SC3CCCC3)c2c1F [Example 38] please
Result: 6.72

Query: Do the same for COc1ccc2sc(C(=O)Nc3nnn[nH]3)c(Sc3cccc(Cl)c3)c2c1F [Example 31] please
Result: 5.23

Query: Do the same for COc1cc2c(Oc3ccc(OC4CCCC4)cc3)c(C(=O)Nc3nn[nH]n3)sc2cc1F [Example 2] please
Result: 7.82

Query: Do the same for COc1ccc(Sc2c(C(=O)Nc3nnn[nH]3)sc3ccc(OC)c(F)c23)cc1 [Example 33] please
Result: 4.71

Query: Do the same for COc1cccc(Sc2c(C(=O)Nc3nnn[nH]3)sc3ccc(OC)c(F)c23)c1 [Example 32] please
Result: 5.23

Query: Do the same for COC(=O)Cc1ccc(Sc2c(C(=O)Nc3nnn[nH]3)sc3ccc(OC)c(F)c23)cc1 [Example 27] please
Result: 4.85

Query: Do the same for COc1cc2c(Oc3ccc(Cl)cc3)c(C(=O)Nc3nn[nH]n3)sc2cc1F [Example 1] please
Result: 7.12

Query: Do the same for COc1cc2c(OC3CCC3)c(C(=O)Nc3nn[nH]n3)sc2cc1F [Example 16] please
Result: 7.49

Query: Do the same for COC(=O)c1cccc(Sc2c(C(=O)Nc3nnn[nH]3)sc3ccc(OC)c(F)c23)c1 [Example 24] please
Result: 5.38

Query: Do the same for COC(=O)CCc1ccc(Sc2c(C(=O)Nc3nnn[nH]3)sc3ccc(OC)c(F)c23)cc1 [Example 28] please
Result: 4.83

Query: Do the same for COc1cc2c(OC3CCOCC3)c(C(=O)Nc3nn[nH]n3)sc2cc1F [Example 14] please
Result: 7.20

Query: Do the same for COc1cc2c(OC3CCCCCC3)c(C(=O)Nc3nn[nH]n3)sc2cc1F [Example 8] please
Result: 8.47

Query: Do the same for COc1cc2c(Oc3ccc(C4CCCCC4)cc3)c(C(=O)Nc3nn[nH]n3)sc2cc1F [Example 4] please
Result: 7.47
